B1: TFE3 (parent)
chain: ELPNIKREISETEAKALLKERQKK

- Variants of: B1
- ASSAY_NOTES: protein stability index of a GFP-peptide fusion (GPS, HEK-293T) (PSI 1-6); higher = more stable;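 note: lentivirally expressed fusions sorted by FACS into six bins by GFP to DsRed ratio, PSI derived from sequencing read proportions per bin multiplied by bin number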
- ASSAY_SETUP: c terminus: a fixed tail appended
Some variants, each annotated with its measured protein stability index.

{"columns": ["MUTATION_DESCRIPTOR", "protein stability index"],
 "data": [
  ["K6T", 3.05],
  ["R7A", 2.55],
  ["L18Y", 2.92],
  ["E13A", 4.83]
]}
